test: Plasma pharmacokinetics by HPLC-ECD after IV dose in rhesus monkeys; details: rhesus monkey, plasma, intravenous, 8 mg kg^-1, Plasma concentration, mean, 1.0 h; infected rhesus
Property Measured: concentration at 1 h (nM)
Write it as a number; the unit nM goes unstated.

Exercise: # return recorded concentration at 1 h for input C[C@H]1[C@@H](O)O[C@@H]2O[C@@]3(C)CC[C@H]4[C@H](C)CC[C@@H]1[C@@]24OO3 [DHA, dihydroartemisinin]
Key: 2680

###

test: in vivo; settings: rhesus monkey, iv, 8 mg/kg, Cmax, parent drug
Property Measured: Cmax (µM)
Write it as a number; the unit µM goes unstated.

Exercise: # return recorded Cmax for input C[C@H]1[C@H](OC(=O)CCC(=O)O)O[C@@H]2O[C@@]3(C)CC[C@H]4[C@H](C)CC[C@@H]1[C@@]24OO3
Key: 28.2
